Test system: lung cancer cell lines (e.g. NCI-H23, NCI-H1229)
Test: Cell based assay, cell viability (CellTiter-Glo), lung cancer cell lines
Conditions: Homo sapiens; Lung cancer cell line NCI-H522; 72 hours; cell viability (CellTiter-Glo); read-out: IC50, NCI-H522
Text: Commercially available bladder cancer, prostate cancer, lung cancer, breast cancer, blood cancer, pancreatic cancer, colorectal cancer, brain cancer, neuroblastoma, melanoma, liver cancer, cervical carcinoma, ovarian cancer, renal cancer, and papilloma cell lines were each treated with trypsin-EDTA and cultured, followed by being seeded in each well of a 96 well plate. […]
pIC50: −log10 of the molar value.
ATTRIBUTE MEASURED: pIC50

CC(=O)c1c([S+]([O-])Cc2nonc2C)[nH]c2c(Br)ccc(Cl)c2c1=O (centres unmarked) [Compound 106] = < 5.70

We now examine a further compound.
Q: Dear colleague, please send me the reported pIC50 for CC(=O)c1c([S+]([O-])Cc2cnc3[nH]ccc3c2)[nH]c2c(Br)ccc(Cl)c2c1=O (centres unmarked) [Compound 107] when you can.
Ans: < 5.70

----------
System: lung cancer cell lines (e.g. NCI-H23, NCI-H1229)
Assay: Cell based assay, cell viability (CellTiter-Glo), lung cancer cell lines
Details: Homo sapiens; NCI-H1299 cells; 72 hours treatment; CellTiter-Glo; read-out: IC50, lung cancer cell line NCI-H1299
Each item that follows carries a reported IC50.
Enter your answer as a number in µM; do not include the unit.

CC(=O)c1c([S+]([O-])Cc2ccc(F)c(Cl)c2)[nH]c2c(Br)ccc(Cl)c2c1=O (stereo not drawn) = 1.22

Q: Dear colleague, please send me the reported IC50 for CC(=O)c1c([S+]([O-])Cc2c(F)c(F)c(F)c(F)c2F)[nH]c2c(Br)ccc(Cl)c2c1=O (stereo not drawn) when you can.
Ans: 1.81

Q: Dear colleague, please send me the reported IC50 for CC(=O)c1c([S+]([O-])Cc2ccccc2C#N)[nH]c2c(Br)ccc(Cl)c2c1=O (stereo not drawn) when you can.
Ans: 1.15

Q: Dear colleague, please send me the reported IC50 for CC(=O)c1c([S+]([O-])Cc2ccc(OC(F)(F)F)cc2)[nH]c2c(Br)ccc(Cl)c2c1=O (stereo not drawn) when you can.
Ans: 1.64

Q: Dear colleague, please send me the reported IC50 for Cc1cc(C[S+]([O-])c2[nH]c3c(Cl)ccc(Cl)c3c(=O)c2C(=O)C2CC2)no1 (stereo not drawn) when you can.
Ans: 1.48

Q: Dear colleague, please send me the reported IC50 for CC(=O)c1c([S+]([O-])Cc2cccc(S(F)(F)(F)(F)F)c2)[nH]c2c(Br)ccc(Cl)c2c1=O (stereo not drawn) when you can.
Ans: 1.32

Q: Dear colleague, please send me the reported IC50 for CC(=O)c1c([S+]([O-])Cc2ccc(C(F)(F)F)o2)[nH]c2c(Br)ccc(Cl)c2c1=O (stereo not drawn) when you can.
Ans: 1.21

----------
Test system: pancreatic cancer cell lines (e.g. MIA PaCa-2)
Assay: Cell based assay, cell viability (CellTiter-Glo), pancreatic cancer cell lines
Conditions: Homo sapiens, pancreatic cancer cell line MIA PaCa-2, 72 hours, read-out: IC50, MIA PaCa-2
Each item that follows carries a reported IC50.

Answered examples (8):
CC(=O)c1c([S+](C)[O-])[nH]c2c(Br)ccc(Cl)c2c1=O (stereo not drawn) = 1590 nM
CC(=O)c1c([S+]([O-])c2ccc(Br)cc2)[nH]c2c(Br)ccc(Cl)c2c1=O (stereo not drawn) = > 2000 nM
CSc1c(C(C)=O)c(=O)c2cc(F)ccc2n1C = > 2000 nM
COCSc1[nH]c2c(Br)ccc(Cl)c2c(=O)c1C(C)=O = > 2000 nM
CC(=O)c1c([S+]([O-])Cc2ccc(C(=O)c3ccccc3)cc2)[nH]c2c(Br)ccc(Cl)c2c1=O (stereo not drawn) = > 2000 nM
COc1cccc2[nH]c(SCc3ccc(S(F)(F)(F)(F)F)cc3)c(C(C)=O)c(=O)c12 = > 2000 nM
CC(=O)c1c([S+]([O-])Cc2c(F)cccc2Cl)[nH]c2c(Br)ccc(Cl)c2c1=O (stereo not drawn) = 1180 nM
CC(=O)c1c([S+]([O-])Cc2cccc(S(F)(F)(F)(F)F)c2)[nH]c2c(Br)ccc(Cl)c2c1=O (stereo not drawn) = 1390 nM

Q: Dear colleague, please send me the reported IC50 for CC(=O)c1c([S+]([O-])Cc2ccc(SC(F)(F)F)cc2)[nH]c2c(Cl)ccc(Cl)c2c1=O (stereo not drawn) when you can.
Ans: > 2000 nM

Q: Dear colleague, please send me the reported IC50 for Cc1cc(C[S+]([O-])c2[nH]c3c(Cl)ccc(Cl)c3c(=O)c2C(=O)c2ccccc2)no1 (stereo not drawn) when you can.
Ans: > 2000 nM

Q: Dear colleague, please send me the reported IC50 for `CC(=O)c1c(SCc2ccccc2)n(C(=O)c2ccc(Br)cc2)c2c(Br)ccc(Cl)c2c1=O` when you can.
Ans: > 2000 nM
